The measurements presented in this section are drawn from patent US20260125382A1.

Entries and their Enzyme degradation CDK9 (% remaining) @ 1 μM values follow.
# experimental-target: CDK9 (Homo sapiens)
# Construct: endogenous in cells; host or cells: MDA-MB-231
# Sequence (P50750 whole entry): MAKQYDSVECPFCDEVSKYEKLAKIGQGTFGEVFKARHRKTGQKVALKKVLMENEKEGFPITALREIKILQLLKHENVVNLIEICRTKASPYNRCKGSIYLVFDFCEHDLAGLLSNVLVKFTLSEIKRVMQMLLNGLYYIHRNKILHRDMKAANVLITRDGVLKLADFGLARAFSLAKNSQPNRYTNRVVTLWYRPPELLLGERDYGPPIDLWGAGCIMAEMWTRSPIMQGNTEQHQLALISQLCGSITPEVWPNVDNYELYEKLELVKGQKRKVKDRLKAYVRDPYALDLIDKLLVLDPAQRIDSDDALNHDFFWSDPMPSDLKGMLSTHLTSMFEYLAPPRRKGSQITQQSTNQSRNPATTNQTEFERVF
# experiment-description: CDK protein degradation activity (Western blotting), CDK9
# Assay type: cell-based
# condition-label: MDA-MB-231 cells, 1 μM, 16 hours, Western blot
Use % as the unit, but write only the number.

What does the record list as Enzyme degradation CDK9 (% remaining) @ 1 μM for O=C1CC[C@@H](c2cccc(OCC(=O)N3CCC(OCCN4CCN(c5ccc(Nc6ncnc7c6ncn7C6CC(NC(=O)Cc7ccccc7)C6)cc5)CC4)CC3)c2)C(=O)N1 (some centres unmarked) ?
0

What does the record list as Enzyme degradation CDK9 (% remaining) @ 1 μM for O=C1CC[C@@H](c2ccc(OCC(=O)N3CCC(CCN4CCN(c5ccc(Nc6ncnc7c6ncn7C6CC(NC(=O)Cc7ccccc7)C6)cc5)CC4)CC3)cc2)C(=O)N1 (some centres unmarked) ?
10

What does the record list as Enzyme degradation CDK9 (% remaining) @ 1 μM for `O=C1CC[C@H](N2C(=O)c3cccc(N4CC(N5CCC6(CC5)CC(N5CCN(c7ccc(Nc8ncnc9c8ncn9[C@H]8C[C@@H](NC(=O)Cc9ccccc9)C8)cc7)CC5)C6)C4)c3C2=O)C(=O)N1` ?
30

What does the record list as Enzyme degradation CDK9 (% remaining) @ 1 μM for Cc1cccc(C(=O)NC2CC(n3cnc4c(NCCCN5CCN(CC6CCN(C(=O)COc7ccc([C@@H]8CCC(=O)NC8=O)cc7)CC6)CC5)ncnc43)C2)n1 (some centres unmarked) ?
10
